Below is a list of entries, each paired with its recorded RAM network inhibition value.
Assay: RAM signaling pathway blockade in yeast – S. cerevisiae, Pdr1DBD-CYC8 efflux-inhibited sensitized strain, primary screen (AID 1298);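 note: 0% = DMSO untreated cells without growth and 100% = 10 µM 1-NA-PP1 full growth; higher means more yeast growth rescued from 5-FOA killing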
Conditions: S. cerevisiae cbk1-as DSE1-URA3 strain, 5-FOA growth OD615, 2 d; at 50 µM; active compounds read high
I only need the number, in %, no unit after it.

compound	measurement_label	value_reported
Cc1nc(NCc2ccc3c(c2)OCO3)c2oc3ccccc3c2n1	RAM network inhibition	3.7
Cn1cc(Cl)c(C(=O)N(Cc2ccccc2)c2ccccn2)n1	RAM network inhibition	7.22
COc1ccc(C2CC(c3cccs3)n3nc(N)nc3N2)cc1 (stereo not drawn)	RAM network inhibition	8.26
C/C=C/COC(=O)c1[nH]c2c(c1C)C(=O)CC(c1ccco1)C2 (stereo not drawn)	RAM network inhibition	0.51
O=C(CCCCCn1c(=O)[nH]c2ccsc2c1=O)N1CCCCC1	RAM network inhibition	-0.43

Incoming: Entry CC(C)(C)NC(=O)CC(CC(=O)O)c1ccccc1 (stereo not drawn) : reported RAM network inhibition = ?
Outgoing: -1.67

Incoming: Same question for COc1ccc(-n2c(=O)c3c4c(sc3n3cnnc23)CC(C)CC4)cc1 (stereo not drawn) please.
Outgoing: 2.05

Incoming: Same question for Cc1nnc(SCC(=O)Nc2c(Cl)cccc2Cl)[nH]c1=O please.
Outgoing: 4.64

Incoming: Same question for CCOC(=O)C1=C(C)NC(=O)NC1c1ccc(OCCO)c(OC)c1 (stereo not drawn) please.
Outgoing: -1.29

Incoming: Same question for CC1CCN(C(=O)C(Cc2ccccc2)n2cccc2)CC1 (stereo not drawn) please.
Outgoing: 5.92

Incoming: Same question for N#Cc1ccc(-c2csc(NC(=O)C3CC3)n2)cc1 please.
Outgoing: 4.29

Incoming: Same question for O=C1CCCC2=C1C(c1cn(-c3ccccc3)nc1-c1cccs1)c1c([nH]c(=O)[nH]c1=O)N2 (stereo not drawn) please.
Outgoing: 2.19

Incoming: Same question for Cc1ccc(-c2cc(C(F)(F)F)n3nc(C(=O)N4CCCC4)cc3n2)cc1 please.
Outgoing: 4.14
